tested system: A/M2-L26F (Influenza A virus, UniProt P0DOF5, L26F)
readout kind: IC50

Find IC50 (A/M2-L26F (Influenza A virus, UniProt P0DOF5, L26F)) for the entry `C1CCC2(CC1)CCN(C1=NCCN1)CC2`
> 10 mM

###

tested system: A/M2-V27A (Influenza A virus, UniProt P0DOF5, V27A)
readout kind: IC50

# query: IC50 | item C1CCC2(CC1)CCN(C1=NCCN1)CC2 [BL-1743] | system: A/M2-V27A (Influenza A virus, UniProt P0DOF5, V27A)
> 10 mM
